Measured GI50 accompanies every entry in the list below.
# System: UACC-62
# TEST_METHOD_NOTES: In vitro cytotoxicity against UACC-62 (Human melanoma) cell line.
# Type: functional
Number only, in µM; omit the unit.

INSERT INTO assay_data (structure_as_smiles, parameter_measured, output_unit, measured_result) VALUES
  ('CCCCn1c2c(c3ccccc3c1=O)C(=O)c1cc3c(cc1-2)OCO3', 'GI50', 'µM', 8.2);

Turning to the following molecule.
Input line: Please provide the recorded GI50 for C=CCN1C(=O)c2cc(OC)c(OC)cc2[C@H]2C(=O)c3cc4c(cc3[C@H]21)OCO4 , tested on UACC-62.
Output line: 0.38
